system: SN12C; test: NCI tumour cell line growth inhibition, 48 h
Active and inactive are the calls of the source. No stated cut-off is given here; in the data, active = GI50 up to about 1.1 µM and inactive = higher.
endpoint name: GI50

* CC(C)(C)OC(=O)N1CCCC1C(=O)NC(c1ccccc1)c1ccccc1 (centres undefined) | > 100 µM (inactive)
* COc1cc([C@@H]2c3cc4c(cc3[C@@H](OC(=O)c3cccc(N)c3)C3COC(=O)[C@@H]32)OCO4)cc(OC)c1O (some centres undefined) | 3.42 µM (inactive)
* Cc1cn(C2CC(N)C(CN)O2)c(=O)[nH]c1=O (centres undefined) | 80.7 µM (inactive)
* COC(=O)NC1=NNC(=O)c2ccccc2N1 | > 100 µM (inactive)
* O=C(/C=C/c1cccs1)c1ccc(C(=O)/C=C/c2cccs2)cc1 | > 100 µM (inactive)
* O=S1(=O)NN=C(NCc2ccc(F)cc2)c2ccccc21 | > 100 µM (inactive)
* COCCOCCOCCOc1ccc(C(C#N)N(CCc2ccccc2)C(=O)c2cc(C(=O)N(CCc3ccccc3)C(C#N)c3ccc(OCCOCCOCCOC)cc3)cc(C(=O)N(CCc3ccccc3)C(C#N)c3ccc(OCCOCCOCCOC)cc3)c2)cc1 (centres undefined) | > 100 µM (inactive)
* CCCCON1C[C@@H](O)C(O)[C@@H](O)C1 (some centres undefined) | > 100 µM (inactive)
* CC1(C)OCC(C2OC3OC(C)(C)OC3C2c2ccccc2)O1 (centres undefined) | 26.7 µM (inactive)
